src = paper PMC10439230

Test system: MDA-MB-231 (triple-negative breast cancer)
Experiment: Cytotoxic activity assay (MTT)
Assay type: cell-based, human
Conditions: Homo sapiens, MDA-MB-231; 48 h exposure, MTT; read-out: Cell lines, IC50 (μM) MDA-MB-231
OUTCOME_MEASURE: IC50

A selection of reference data follows.
Lookup: What IC50 value was documented for this molecule, C=C1CCC2C(C)(C)CCC[C@]2(C)[C@H]1CC/C(C)=C/C=O (some centres unmarked) [Compound 3] ?
Found: 64.1 µM

Lookup: # query: IC50 of entry C=C1CC[C@H]2C(C)(C)CCC[C@]2(C)[C@H]1CC/C(C)=C/C(=O)N(C)C [Compound 4m]
Found: 32.1 µM

Lookup: Need IC50 of C=C1CC[C@H]2C(C)(C)CCC[C@]2(C)[C@H]1CC/C(C)=C/C(=O)N1CCCCC1 [Compound 4n] , thanks.
Found: 33.9 µM

Continuing:
Lookup: Entry C=C1CCC2C(C)(C)CCCC2(C)C1CCC(C)=CCO (centres unmarked) [Compound 2, anticopalol] has what IC50?
Found: 31.8 µM
